Hey, just so you know, these numbers are from patent US20240285497A1.

Assay: in vitro
Details: human
Description: After the above-described incubation for 24 hours, the number of cells in each well was counted by a colorimetric method based on the degradation of tetrazolium salt (WST-1) by mitochondrial dehydrogenase in viable cells. […] Thereafter, 93 μL of cell culture supernatant was removed from each well to measure the absorbance of the supernatant in each well. […] A value (A450-A670) was obtained by subtracting the absorbance at 670 nm (A670) from the absorbance at 450 nm (A450). […]
measure: CC50 at 24 h

Name the reported CC50 at 24 h value associated with the molecule O=C1Nc2ccccc2/C1=C1/Nc2ccccc2C1=O
> 40 µM
